Test system: OVCAR-3 ovarian
test.summary: NCI-60 one-dose screen, 48 h (100 = growth as untreated, 0 = no growth, -100 = all killed)
applied.conditions: 10 µM
This is part of a sample that, as a whole, favours compounds with a hit. Of some 83,000 tested, about 20% had one in any assay.
Exercise: state measured growth for each of the compounds provided.
Answers are plain numbers, in %.

compound: CC(C)/C=N/NC(N)=S
growth / %: 53

# batch size: 4; output growth per entry
1. CC1=CSC2=NC(c3ccc(Cl)c(Cl)c3)=CC(c3ccc(Cl)cc3)N12 (stereo unspecified)
2. COc1ccc(/C=C(\c2cc(OC)c(OC)c(OC)c2)c2nnc(-c3cccs3)o2)cc1
3. CS(=O)(=O)Nc1ccc([N+](=O)[O-])cc1Oc1ccccc1
4. CN(C1c2ccccc2Oc2ccccc21)S(=O)(=O)c1cc(Cl)ccc1Cl

Given back:
[18, 82.6, 95.4, 19.4]

Kindly note the recorded growth for `O=C(Nc1cccc(C(F)(F)F)c1)C(Cl)Cl` , which is 107
